Data origin, for the record: the supplement of paper PMC4862054

Each item that follows carries a reported normalised viability.
- Tested on: DU-4475
- PROTOCOL SUMMARY: normalised viability (% of control), CellTiter-Blue; higher = more viable cells (about 100 = DMSO control)
- APPLIED CONDITIONS: 10 nM; incubation time: 72 h
MEASUREMENT TYPE: normalised viability (%)

MOLECULE	UNIT TEXT	VALUE MEASURED
Nc1nc2[nH]cc(CCc3ccc(C(=O)N[C@@H](CCC(=O)O)C(=O)O)cc3)c2c(=O)[nH]1 [Pemetrexed]	%	104
CCN(CC)CCCC(C)Nc1c2ccc(Cl)cc2nc2ccc(OC)cc12 (stereo unspecified) [Mepacrine]	%	96.4
O=C(Cc1ccc(-c2ccc(OCCN3CCOCC3)cc2)cn1)NCc1ccccc1 [KX2-391]	%	94.4
CCc1cncnc1N1CCN(Cc2nc3ccc(C(F)(F)F)cc3[nH]2)CC1	%	94.2
CCCCC(=O)OCC(=O)[C@]1(O)Cc2c(O)c3c(c(O)c2[C@@H](O[C@H]2C[C@H](NC(=O)C(F)(F)F)[C@H](O)[C@H](C)O2)C1)C(=O)c1c(OC)cccc1C3=O [Valrubicin]	%	89.4
O=C(O)C1(C(=O)O)CCC1.[NH2-].[NH2-].[Pt+2] [Carboplatin]	%	98.9

* * *

- System: Hs578T
- PROTOCOL SUMMARY: normalised response (% of control), CellTiter-Glo; higher = more viable cells (100 = DMSO, 0 = benzethonium chloride kill control)
- APPLIED CONDITIONS: incubation time: 72 h

COMPOUND	normalised response (%)
C[C@H]1C[C@@H]2[C@H]([C@@H](O)C[C@@]3(C)[C@H]2CC[C@]3(O)C(=O)CO)[C@@]2(C)C=CC(=O)C=C12 [Methylprednisolone] (10000 nM)	108
CCc1cncnc1N1CCN(Cc2nc3ccc(C(F)(F)F)cc3[nH]2)CC1 (10000 nM)	95.7
C=CC(=O)N1CCC[C@@H](n2nc(-c3ccc(Oc4ccccc4)cc3)c3c(N)ncnc32)C1 [Ibrutinib] (1000 nM)	106
CCN(CC)CCCC(C)Nc1c2ccc(Cl)cc2nc2ccc(OC)cc12 (stereo not drawn) [Mepacrine] (50000 nM)	97.7
C=CCc1cccc(/C=N/NC(=O)CN2CCN(Cc3ccccc3)CC2)c1O [PAC-1] (10000 nM)	73.5
CCCS(=O)(=O)Nc1ccc(F)c(C(=O)c2c[nH]c3ncc(-c4ccc(Cl)cc4)cc23)c1F [Vemurafenib] (10000 nM)	70.7
Nc1nc2[nH]cc(CCc3ccc(C(=O)N[C@@H](CCC(=O)O)C(=O)O)cc3)c2c(=O)[nH]1 [Pemetrexed] (10000 nM)	18.5
Nc1nc(F)nc2c1ncn2[C@@H]1O[C@H](CO)[C@@H](O)[C@@H]1O [Fludarabine] (10000 nM)	98.3

* * *

Each item that follows carries a reported normalised response.
- System: CAL-120
- PROTOCOL SUMMARY: normalised response (% of control), CellTiter-Glo; higher = more viable cells (100 = DMSO, 0 = benzethonium chloride kill control)
- APPLIED CONDITIONS: incubation time: 72 h

MOLECULE	normalised response (%)
COc1cc2c(NC3CCN(C(C)C)CC3)nc(C3CCCCC3)nc2cc1OCCCN1CCCC1 [UNC0638] (10000 nM)	8.51
O=C(/C=C/c1cccnc1)NCCCCC1CCN(C(=O)c2ccccc2)CC1 [Daporinad] (1000 nM)	14
CC[C@H](C)C(=O)O[C@H]1C[C@H](O)C=C2C=C[C@H](C)[C@H](CC[C@@H](O)C[C@@H](O)CC(=O)O)[C@H]21 [Pravastatin] (10000 nM)	58
Nc1ncn([C@H]2C[C@H](O)[C@@H](CO)O2)c(=O)n1 [Decitabine] (10000 nM)	83.9

* * *

- Test system: MDA-MB-231
- PROTOCOL SUMMARY: normalised response (% of control), CellTiter-Glo; higher = more viable cells (100 = DMSO, 0 = benzethonium chloride kill control)
- APPLIED CONDITIONS: incubation time: 72 h

COMPOUND	normalised response
COc1cc([C@@H]2c3cc4c(cc3[C@@H](O[C@@H]3O[C@@H]5CO[C@@H](c6cccs6)O[C@H]5[C@H](O)[C@H]3O)[C@H]3COC(=O)[C@H]23)OCO4)cc(OC)c1O [Teniposide] (1000 nM)	66%
COc1cc2c(NC3CCN(C(C)C)CC3)nc(C3CCCCC3)nc2cc1OCCCN1CCCC1 [UNC0638] (1000 nM)	92%
CC[C@@H]1C(=O)N(C)c2cnc(Nc3ccc(C(=O)NC4CCN(C)CC4)cc3OC)nc2N1C1CCCC1 [BI 2536] (0.1 nM)	103%
C=CC(=O)Nc1cc2c(Nc3ccc(F)c(Cl)c3)ncnc2cc1OCCCN1CCOCC1 [Canertinib] (1000 nM)	78%
Nc1ccccc1NC(=O)c1ccc(CNC(=O)OCc2cccnc2)cc1 [Entinostat] (10 nM)	98.6%
Cc1cnc(NC(=O)Nc2cc(Br)c(C)cc2OC[C@@H]2CNCCO2)cn1 [Rabusertib] (1 nM)	107%
C=CC(=O)N1CCC[C@@H](n2nc(-c3ccc(Oc4ccccc4)cc3)c3c(N)ncnc32)C1 [Ibrutinib] (1 nM)	105%

* * *

- Tested on: HCC1599
- PROTOCOL SUMMARY: normalised viability (% of control), CellTiter-Blue; higher = more viable cells (about 100 = DMSO control)
- APPLIED CONDITIONS: 10 nM; incubation time: 72 h

MOLECULE SMILES	normalised viability / %
NCCCNCCSP(=O)(O)O	102
CC[C@H](Nc1ncnc2[nH]cnc12)c1nc2cccc(F)c2c(=O)n1-c1ccccc1	84.8
C1CN1c1nc(N2CC2)nc(N2CC2)n1	90.9
C[C@H]1C[C@@H]2[C@H]([C@@H](O)C[C@@]3(C)[C@H]2CC[C@]3(O)C(=O)CO)[C@@]2(C)C=CC(=O)C=C12	105

* * *

Each item that follows carries a reported normalised response.
- Test system: BT-474
- PROTOCOL SUMMARY: normalised response (% of control), CellTiter-Glo; higher = more viable cells (100 = DMSO, 0 = benzethonium chloride kill control)
- APPLIED CONDITIONS: incubation time: 72 h

MOLECULE	ASSAY SYSTEM	UNIT TEXT	normalised response
COc1cc2c(Oc3ccc4[nH]c(C)cc4c3F)ncnc2cc1OCCCN1CCCC1 [Cediranib] (100 nM)	BT-474	%	104
CCCCC(=O)OCC(=O)[C@]1(O)Cc2c(O)c3c(c(O)c2[C@@H](O[C@H]2C[C@H](NC(=O)C(F)(F)F)[C@H](O)[C@H](C)O2)C1)C(=O)c1c(OC)cccc1C3=O [Valrubicin] (500 nM)	BT-474	%	83.8
COc1cc2c(NC3CCN(C(C)C)CC3)nc(C3CCCCC3)nc2cc1OCCCN1CCCC1 [UNC0638] (1 nM)	BT-474	%	91.1
COc1cc([C@@H]2c3cc4c(cc3[C@@H](O[C@@H]3O[C@@H]5CO[C@@H](c6cccs6)O[C@H]5[C@H](O)[C@H]3O)[C@H]3COC(=O)[C@H]23)OCO4)cc(OC)c1O [Teniposide] (1 nM)	BT-474	%	99.3
O=C(O)C(=O)O.[NH-][C@@H]1CCCC[C@H]1[NH-].[Pt+2] [Oxaliplatin] (1000 nM)	BT-474	%	97.7
COc1cc2nccc(Oc3ccc(NC(=O)Nc4cc(C)on4)c(Cl)c3)c2cc1OC [Tivozanib] (1000 nM)	BT-474	%	81.3
CNC(=O)c1cc(Oc2ccc(NC(=O)Nc3cc(C(C)(C)C)nn3-c3ccc4ncccc4c3)c(F)c2)ccn1 [Rebastinib] (0.1 nM)	BT-474	%	99.5
O=C(O)C(=O)O.[NH-][C@@H]1CCCC[C@H]1[NH-].[Pt+2] [Oxaliplatin] (1 nM)	BT-474	%	91.9
C=CC(=O)N1CCC[C@@H](n2nc(-c3ccc(Oc4ccccc4)cc3)c3c(N)ncnc32)C1 [Ibrutinib] (1 nM)	BT-474	%	103
CC[C@@H]1C(=O)N(C)c2cnc(Nc3ccc(C(=O)NC4CCN(C)CC4)cc3OC)nc2N1C1CCCC1 [BI 2536] (0.1 nM)	BT-474	%	105
Oc1ncc(N(CCCl)CCCl)c(O)n1 [Uracil mustard] (10 nM)	BT-474	%	103
CCCS(=O)(=O)Nc1ccc(F)c(C(=O)c2c[nH]c3ncc(-c4ccc(Cl)cc4)cc23)c1F [Vemurafenib] (10 nM)	BT-474	%	95.5
CCCCC(=O)OCC(=O)[C@]1(O)Cc2c(O)c3c(c(O)c2[C@@H](O[C@H]2C[C@H](NC(=O)C(F)(F)F)[C@H](O)[C@H](C)O2)C1)C(=O)c1c(OC)cccc1C3=O [Valrubicin] (5 nM)	BT-474	%	97.6
O=C(O)CCCCC(CCSCc1ccccc1)SCc1ccccc1 (stereo not given) [CPI-613] (10 nM)	BT-474	%	105
CCc1cncnc1N1CCN(Cc2nc3ccc(C(F)(F)F)cc3[nH]2)CC1 (1000 nM)	BT-474	%	96.7
CC1=C(/C=C/C(C)=C/C=C/C(C)=C/C(=O)O)C(C)(C)CCC1 [Tretinoin] (10 nM)	BT-474	%	96.6
COc1cc2nccc(Oc3ccc(NC(=O)Nc4cc(C)on4)c(Cl)c3)c2cc1OC [Tivozanib] (1 nM)	BT-474	%	91.4
C=CC(=O)Nc1cc2c(Nc3ccc(F)c(Cl)c3)ncnc2cc1OCCCN1CCOCC1 [Canertinib] (1 nM)	BT-474	%	96.8
Oc1ncc(N(CCCl)CCCl)c(O)n1 [Uracil mustard] (1 nM)	BT-474	%	105
Nc1ccccc1NC(=O)c1ccc(CNC(=O)OCc2cccnc2)cc1 [Entinostat] (10 nM)	BT-474	%	100
O=C(O)C1(C(=O)O)CCC1.[NH2-].[NH2-].[Pt+2] [Carboplatin] (1000 nM)	BT-474	%	100
CC(=O)Nc1cccc(-n2c(=O)n(C3CC3)c(=O)c3c(Nc4ccc(I)cc4F)n(C)c(=O)c(C)c32)c1 [Trametinib] (25 nM)	BT-474	%	73.5
CCN(CC)CCCC(C)Nc1c2ccc(Cl)cc2nc2ccc(OC)cc12 (stereo not given) [Mepacrine] (5 nM)	BT-474	%	96.1
CCCS(=O)(=O)Nc1ccc(F)c(C(=O)c2c[nH]c3ncc(-c4ccc(Cl)cc4)cc23)c1F [Vemurafenib] (1 nM)	BT-474	%	97.2
COc1cc2c(NC3CCN(C(C)C)CC3)nc(C3CCCCC3)nc2cc1OCCCN1CCCC1 [UNC0638] (1000 nM)	BT-474	%	92.4
